Source listed as paper PMC5769417.

Assay: Multiple-dose trial, plasma pharmacokinetics
Type: in vivo, human
Details: both sexes, human, plasma, po, 200 mg, 200 mg oral after breakfast, Day 1, read-out: t1/2 (converted)
Quantity Kind: half-life (h)
// return numeric value only (unit: h, not printed)

Recorded half-life (compound CC(C)=CCC[C@](C)(OC1O[C@H](CO)[C@@H](O)[C@H](O)[C@H]1O)[C@H]1CC[C@]2(C)[C@@H]1[C@H](O)C[C@@H]1[C@@]3(C)CC[C@H](O)C(C)(C)[C@@H]3CC[C@]12C (stereo partly shown) [CK] ): 23.4

###

Experiment: Multiple-dose trial, plasma pharmacokinetics
Assay type: in vivo, human
Conditions: male, human, plasma, oral, Day 15, Male, read-out: t1/2 (converted)
Quantity Kind: half-life (h)
// return numeric value only (unit: h, not printed)

Per the record, CC(C)=CCC[C@](C)(OC1O[C@H](CO)[C@@H](O)[C@H](O)[C@H]1O)[C@H]1CC[C@]2(C)[C@@H]1[C@H](O)C[C@@H]1[C@@]3(C)CC[C@H](O)C(C)(C)[C@@H]3CC[C@]12C (stereo partly shown) [CK] has half-life of 34.3

###

Test: Multiple-dose trial, plasma pharmacokinetics
Assay type: in vivo, human
Conditions: female, human, plasma, oral, Day 15, Female, read-out: Tmax, median (range)
Quantity Kind: Tmax (h)
Give the quantity in h, number only.

// Tmax lookup, compound = CC(C)=CCC[C@](C)(OC1O[C@H](CO)[C@@H](O)[C@H](O)[C@H]1O)[C@H]1CC[C@]2(C)[C@@H]1[C@H](O)C[C@@H]1[C@@]3(C)CC[C@H](O)C(C)(C)[C@@H]3CC[C@]12C (stereo partly shown) , result: 3.5

###

Experiment: Single-dose trial, plasma pharmacokinetics
Assay type: in vivo, human
Conditions: both sexes, human, plasma, po, 200 mg, single-dose trial, 200 mg oral, fasting; read-out: Tmax, median (range)
Quantity Kind: Tmax (h)
Reply with just the number (in h).

get_value(item= CC(C)=CCC[C@](C)(OC1O[C@H](CO)[C@@H](O)[C@H](O)[C@H]1O)[C@H]1CC[C@]2(C)[C@@H]1[C@H](O)C[C@@H]1[C@@]3(C)CC[C@H](O)C(C)(C)[C@@H]3CC[C@]12C (stereo partly shown) [CK] , readout=Tmax) returns 3.3

###

Experiment: Single-dose trial, plasma pharmacokinetics
Assay type: in vivo, human
Conditions: both sexes, human, plasma; single-dose trial, 50 mg oral, fasting
Quantity Kind: MRT inf (h)
Give just the numeric value; h need not be written.

Given item CC(C)=CCC[C@](C)(OC1O[C@H](CO)[C@@H](O)[C@H](O)[C@H]1O)[C@H]1CC[C@]2(C)[C@@H]1[C@H](O)C[C@@H]1[C@@]3(C)CC[C@H](O)C(C)(C)[C@@H]3CC[C@]12C (stereo partly shown) , the value recorded as its MRT inf is 12.5

###

Assay: Multiple-dose trial, plasma pharmacokinetics
Type: in vivo, human
Conditions: both sexes, human, plasma, 400 mg qd oral after breakfast, Day 15, read-out: AUCτ (zero to 24 h)
Quantity Kind: AUC (ng·h/mL)
Give the quantity in ng·h/mL, number only.

Value of measured AUC for the entry CC(C)=CCC[C@](C)(OC1O[C@H](CO)[C@@H](O)[C@H](O)[C@H]1O)[C@H]1CC[C@]2(C)[C@@H]1[C@H](O)C[C@@H]1[C@@]3(C)CC[C@H](O)C(C)(C)[C@@H]3CC[C@]12C (stereo partly shown) : 41400

###

Experiment: Single-dose trial, plasma pharmacokinetics
Type: in vivo, human
Conditions: both sexes, human, plasma; single-dose trial, 200 mg oral, fasting; read-out: t1/2 (converted)
Quantity Kind: half-life (h)
Report only the number, with the unit h understood.

// field: half-life; key: CC(C)=CCC[C@](C)(OC1O[C@H](CO)[C@@H](O)[C@H](O)[C@H]1O)[C@H]1CC[C@]2(C)[C@@H]1[C@H](O)C[C@@H]1[C@@]3(C)CC[C@H](O)C(C)(C)[C@@H]3CC[C@]12C (stereo partly shown) ; value = 21.6

###

Assay: Single-dose trial, plasma pharmacokinetics
Format: in vivo, human
Settings: both sexes, human, plasma; single-dose trial, 200 mg oral, fasting
Quantity Kind: AUC(0-inf) (ng·h/mL)
// note: answer is a bare numeric in ng·h/mL

molecule CC(C)=CCC[C@](C)(OC1O[C@H](CO)[C@@H](O)[C@H](O)[C@H]1O)[C@H]1CC[C@]2(C)[C@@H]1[C@H](O)C[C@@H]1[C@@]3(C)CC[C@H](O)C(C)(C)[C@@H]3CC[C@]12C (stereo partly shown) , AUC(0-inf) observed: 6090

###

Assay: Single-dose trial, plasma pharmacokinetics
Assay type: in vivo, human
Details: both sexes, human, plasma, po, 100 mg, single-dose trial, 100 mg oral, fasting; read-out: Tmax, median (range)
Quantity Kind: Tmax

Measured Tmax, CC(C)=CCC[C@](C)(OC1O[C@H](CO)[C@@H](O)[C@H](O)[C@H]1O)[C@H]1CC[C@]2(C)[C@@H]1[C@H](O)C[C@@H]1[C@@]3(C)CC[C@H](O)C(C)(C)[C@@H]3CC[C@]12C (stereo partly shown) [CK] : 3 h

###

Assay: Single-dose trial, plasma pharmacokinetics
Assay type: in vivo, human
Settings: both sexes, human, plasma; single-dose trial, 400 mg oral, fasting
Quantity Kind: MRT inf (h)
Output spec: scalar in h, unitless text.

Quick note, MRT inf for CC(C)=CCC[C@](C)(OC1O[C@H](CO)[C@@H](O)[C@H](O)[C@H]1O)[C@H]1CC[C@]2(C)[C@@H]1[C@H](O)C[C@@H]1[C@@]3(C)CC[C@H](O)C(C)(C)[C@@H]3CC[C@]12C (stereo partly shown) [CK] landed at 14

###

Experiment: Multiple-dose trial, plasma pharmacokinetics
Assay type: in vivo, human
Conditions: both sexes, human, plasma, po, 200 mg, 200 mg oral after breakfast, Day 1
Method: Multiple-dose pharmacokinetics: […] All samples were preserved at −70°C and analyzed with a LC-MS/MS (API 4000 LC-MS/MS, ABI Company, Foster City, CA, USA) at the Institute of Clinical Pharmacology, Central South University (Changsha, China). […] Accuracy and precision of the assay were determined by evaluating the performance of the assay controls. […]
Quantity Kind: AUC(0-t) (ng·h/mL)
Please respond with the number in ng·h/mL and leave the unit unwritten.

AUC(0-t) in this record for CC(C)=CCC[C@](C)(OC1O[C@H](CO)[C@@H](O)[C@H](O)[C@H]1O)[C@H]1CC[C@]2(C)[C@@H]1[C@H](O)C[C@@H]1[C@@]3(C)CC[C@H](O)C(C)(C)[C@@H]3CC[C@]12C (stereo partly shown) [CK] : 22300

###

Experiment: Multiple-dose trial, plasma pharmacokinetics
Format: in vivo, human
Conditions: both sexes, human, plasma, po, 100 mg, 100 mg qd oral after breakfast, Day 15, read-out: Tmax, median (range)
Description: Multiple-dose pharmacokinetics: […] All samples were preserved at −70°C and analyzed with a LC-MS/MS (API 4000 LC-MS/MS, ABI Company, Foster City, CA, USA) at the Institute of Clinical Pharmacology, Central South University (Changsha, China). […] Accuracy and precision of the assay were determined by evaluating the performance of the assay controls. […]
Quantity Kind: Tmax (h)
Your answer is read as h, so omit the unit and give the number.

CC(C)=CCC[C@](C)(OC1O[C@H](CO)[C@@H](O)[C@H](O)[C@H]1O)[C@H]1CC[C@]2(C)[C@@H]1[C@H](O)C[C@@H]1[C@@]3(C)CC[C@H](O)C(C)(C)[C@@H]3CC[C@]12C (stereo partly shown) [CK] yielded Tmax of 3.8

###

Test: Single-dose trial, plasma pharmacokinetics
Type: in vivo, human
Details: both sexes, human, plasma; single-dose trial, 600 mg oral, fasting; read-out: t1/2 (converted)
Quantity Kind: half-life (h)
Field: numeric (h). Do not append units.

Reported half-life for CC(C)=CCC[C@](C)(OC1O[C@H](CO)[C@@H](O)[C@H](O)[C@H]1O)[C@H]1CC[C@]2(C)[C@@H]1[C@H](O)C[C@@H]1[C@@]3(C)CC[C@H](O)C(C)(C)[C@@H]3CC[C@]12C (stereo partly shown) was 26.2

###

Experiment: Multiple-dose trial, plasma pharmacokinetics
Assay type: in vivo, human
Conditions: both sexes, human, plasma, po, 400 mg, 400 mg oral after breakfast, Day 1, read-out: Cmax
Quantity Kind: Cmax (ng/mL)
API: value field is a number in ng/mL; no unit string.

Field Cmax (entry CC(C)=CCC[C@](C)(OC1O[C@H](CO)[C@@H](O)[C@H](O)[C@H]1O)[C@H]1CC[C@]2(C)[C@@H]1[C@H](O)C[C@@H]1[C@@]3(C)CC[C@H](O)C(C)(C)[C@@H]3CC[C@]12C (stereo partly shown) ) reads 5060

###

Assay: Multiple-dose trial, plasma pharmacokinetics
Format: in vivo, human
Details: both sexes, human, plasma, po, 400 mg, 400 mg qd oral after breakfast, Day 15
Quantity Kind: AUC(0-inf) (ng·h/mL)
Express it in ng·h/mL; write the number only.

// AUC(0-inf) value for CC(C)=CCC[C@](C)(OC1O[C@H](CO)[C@@H](O)[C@H](O)[C@H]1O)[C@H]1CC[C@]2(C)[C@@H]1[C@H](O)C[C@@H]1[C@@]3(C)CC[C@H](O)C(C)(C)[C@@H]3CC[C@]12C (stereo partly shown) [CK] : 59200
